# MEASURED ON: MAF (Homo sapiens, UniProt O75444)
# Sequence (O75444 288-351 limits assumed): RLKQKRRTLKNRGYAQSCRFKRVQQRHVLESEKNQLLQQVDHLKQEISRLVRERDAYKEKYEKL
# TEST PROTOCOL: Direct-binding FRET assay
# Parameters: made in house
# ASSAY CONDITIONS: 23°C; N-terminal rhodamine design; mean or single
pKd: −log10 of the molar value. Where no end group is shown, it is not given here.
MEASURED QUANTITY: pKd

Given the entry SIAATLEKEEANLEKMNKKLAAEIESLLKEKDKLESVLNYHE [JUN-d1] , report its measured pKd.
< 6.00

---

# MEASURED ON: CREBZF (Homo sapiens)
# Construct: made in house
# Sequence (Q9NS37 204-267 limits assumed): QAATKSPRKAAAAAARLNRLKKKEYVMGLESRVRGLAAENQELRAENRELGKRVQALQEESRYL
# TEST PROTOCOL: Direct-binding FRET assay
# ASSAY CONDITIONS: 37°C; C-terminal rhodamine design; repeat 2; read-out: Kd
pKd: −log10 of the molar value. Where no end group is shown, it is not given here.
MEASURED QUANTITY: pKd

Which measured pKd belongs to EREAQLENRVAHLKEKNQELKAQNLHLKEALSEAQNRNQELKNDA [XBP1-d1] , tested on CREBZF (Homo sapiens)?
< 6.00

The measurements presented in this section are drawn from paper PMC4335062.
